Overview of reported melting point across a group of compounds:
reported.metric: melting point

INSERT INTO results (smiles_record, recorded_value) VALUES
  ('Cc1c(C(=O)Nc2ccc(O)cc2)nn(-c2ccc(Cl)cc2)c1-n1cccc1', '226 to 228 °C'),
  ('Cc1c(C(=O)Nc2cccc(C(=O)O)c2)nn(-c2ccc(Cl)cc2)c1-n1cccc1', '248 to 250 °C'),
  ('CN1CCN(C(=O)c2cnn(-c3ccccc3)c2-n2cccc2)CC1', '156 to 158 °C'),
  ('C[C@H](NC(=O)CNC(=O)c1cnn(-c2ccccc2)c1-n1cccc1)C(=O)O', '80 to 84 °C'),
  ('O=C(O)CNC(=O)c1cnn(-c2ccccc2)c1-n1cccc1', '191 to 194 °C'),
  ('CCOC(=O)[C@H](C)NC(=O)c1cnn(-c2ccccc2)c1-n1cccc1', '90 to 92 °C'),
  ('CC(C)(C)OC(=O)Nc1c(C(=O)NCc2ccc(Br)cc2)cnn1-c1ccc([N+](=O)[O-])cc1', '169 to 171 °C'),
  ('COC(=O)CNC(=O)c1cnn(-c2ccccc2)c1-n1cccc1', '139 to 141 °C'),
  ('CC(C)(C)OC(=O)Nc1c(C(=O)NCc2ccc(Br)cc2)cnn1-c1ccccc1', '175 to 176 °C'),
  ('O=C(Nc1ccc(Cl)cc1)c1cnn(-c2ccccc2)c1-n1cccc1', '197 to 198 °C'),
  ('Cc1c(C(=O)NCc2ccncc2)nn(-c2ccc(Cl)cc2)c1-n1cccc1', '189 to 193 °C'),
  ('CCOC(=O)[C@@H](NC(=O)c1cnn(-c2ccccc2)c1-n1cccc1)C(C)C', '75 to 78 °C'),
  ('Cc1c(C(=O)NC23CC4CC(CC(O)(C4)C2)C3)nn(-c2ccccc2)c1-n1cccc1', '137 to 138 °C'),
  ('Cc1c(C(=O)N2CCOCC2)nn(-c2ccc(Cl)cc2)c1-n1cccc1', '174 to 177 °C'),
  ('COC(=O)c1cccc(NC(=O)c2nn(-c3ccc(Cl)cc3)c(-n3cccc3)c2C)c1', '158 to 160 °C'),
  ('Cc1c(C(=O)N[C@@H](Cc2ccccc2)C(=O)OC(C)(C)C)nn(-c2c(Cl)cc(Cl)cc2Cl)c1-n1c(C)ccc1C', '72 to 81 °C'),
  ('CCOC(=O)N1CCN(C(=O)c2nn(-c3ccccc3)c(-n3cccc3)c2C)CC1', '130 to 131 °C');

* * *

Tested on: Acinetobacter baumannii ATCC 17978
Assay: MAC determination in the presence of subinhibitory colistin
Type: cell-based
Conditions: minimal ratio of MIC of compound alone to MAC with 0.5 × MIC colistin
Quick reference for MIC/MAC Ratio Aba among some compounds
reported.metric: MIC/MAC Ratio Aba

INSERT INTO measurements (compound, recorded_value) VALUES
  ('Cc1c(C(=O)N[C@@H](Cc2ccccc2)C(=O)OC(C)(C)C)nn(-c2c(Cl)cc(Cl)cc2Cl)c1-n1c(C)ccc1C', 16),
  ('Cc1c(C(=O)Nc2ccc(O)cc2)nn(-c2ccc(Cl)cc2)c1-n1cccc1', 64),
  ('CC(C)(C)OC(=O)[C@H](Cc1ccccc1)NC(=O)c1cnn(-c2ccccc2)c1-n1cccc1', 128),
  ('Cc1c(C(=O)N2CCN(C)CC2)nn(-c2ccc(Cl)cc2)c1-n1cccc1', 8),
  ('Cc1c(C(=O)N(CCO)Cc2ccccc2)nn(-c2ccc(Cl)cc2)c1-n1cccc1', 16),
  ('CC(C)(C)OC(=O)Nc1c(C(=O)NCc2ccc(Br)cc2)cnn1-c1ccccc1', 8),
  ('CC(C)(C)OC(=O)Nc1c(C(=O)NCc2ccc(-c3ccc(OC(F)(F)F)cc3)cn2)cnn1-c1ccc([N+](=O)[O-])cc1', 8),
  ('O=C(NC12CC3CC(CC(C3)C1)C2)c1cnn(-c2ccccc2)c1-n1cccc1', 128),
  ('Cc1c(C(=O)Nc2ccc(S(C)(=N)=O)cc2)nn(-c2ccc(Cl)cc2)c1-n1cccc1 (stereo not drawn)', 64);

Reference source for all entries: paper PMC9774939
